Data credit: ChEMBL document CHEMBL3576819

# Tested on: Hepatitis B virus
# METHOD_DESCRIPTION: Antiviral activity against Hepatitis B virus infected in human HepG2.2.15 cells assessed as cell survival at 75 uM after 9 days (reference value: 100%)
# Assay type: functional
# ASSAY_CONDITIONS: HepG2 2.2.15, 216 h
Kindly supply the reported viability at 75 µM values for the records listed here.
I only need the number, in %, no unit after it.

# viability at 75 µM (compound: COc1cc(/C=C/C(=O)O/N=C/c2ccccn2)cc(OC)c1OC ) is 107

# viability at 75 µM (compound: COc1ccc(/C=C/C(=O)O/N=C/c2cccs2)cc1OC ) is 101

# viability at 75 µM (compound: COc1ccc(/C=C/C(=O)O/N=C/c2ccco2)cc1OC ) is 120
